Hey, just so you know, these numbers are from patent US20100092481A1.

target: T1, hCMV gH, gL, UL128, UL130 and UL131A co-expressed in HEK293T cells (human cytomegalovirus, UniProt P12824 24-743; P16832 31-278; P16837 1-171; P16772 1-214); test: cell cross-competition, 20x excess; competitor 8I21-biotin
T1 construct: whole, on cells; also called gH + gL + UL128 + UL130 + UL131A; gH/gL/UL128-130 complex
Give measured Inhibition of binding (%) for each item. Keep answers brief.
Response body: numeric value in %, unit text excluded.

Challenge: // query Inhibition of binding (%) value for entry 4N10 (antibody, V domains shown, human IgG mAb; also called 4N10-biotin) VH: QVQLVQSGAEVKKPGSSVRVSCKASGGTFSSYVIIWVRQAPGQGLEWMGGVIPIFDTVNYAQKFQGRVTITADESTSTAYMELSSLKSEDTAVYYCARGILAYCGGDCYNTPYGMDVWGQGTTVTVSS VL: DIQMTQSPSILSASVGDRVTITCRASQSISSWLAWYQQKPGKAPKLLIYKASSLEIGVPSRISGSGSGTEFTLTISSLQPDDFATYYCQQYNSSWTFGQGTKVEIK
Response given: 90

Challenge: // query Inhibition of binding (%) value for entry 7I13 (antibody, V domains shown, human IgG mAb) VH: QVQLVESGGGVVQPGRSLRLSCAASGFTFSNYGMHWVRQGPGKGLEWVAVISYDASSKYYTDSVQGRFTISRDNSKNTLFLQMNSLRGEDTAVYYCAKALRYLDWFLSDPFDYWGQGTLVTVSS VL: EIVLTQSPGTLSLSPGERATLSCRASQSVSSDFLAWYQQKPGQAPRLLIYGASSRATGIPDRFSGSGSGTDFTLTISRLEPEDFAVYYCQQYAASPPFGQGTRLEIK
Response given: 0

Challenge: // query Inhibition of binding (%) value for entry 3G16 (antibody, V domains shown, human IgG mAb; also called 3G16-biotin) VH: QSALTQPASVSGSPGESITISCTGTISDVGAYNSVSWYQQHSGTAPELIIYDVTNRPAGVSSRFSGSKSGNTASLTISWLQSEDEAEYYCSSYTTSDTYVFGSGTQVTVL V domain: RAQLVQSAAEMKNPGASVKVSCEASGYTFTGYYVHWMRQAPGQGLEWMGWINPMTGATKSPQKFQGRVTMTRDTSTTATHIELTRLRSDDSAVFFCARGGPTSTRITGKRHFDLWGRGTLITVAS
Response given: 0
